Source: the supplement of paper PMC10567573

B1: STK38L (parent)
chain: NWKETLVFPPEVPISEKAKDLILR

variants of: B1; assay: protein stability index of a GFP-peptide fusion (GPS, HEK-293T) (PSI 1-6); higher = more stable; settings: c terminus: a fixed tail appended;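 further: lentivirally expressed fusions sorted by FACS into six bins by GFP to DsRed ratio, PSI derived from sequencing read proportions per bin multiplied by bin number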
measured.property: protein stability index
Reply briefly: the number, and no unit.

Below, 8 variants whose answers are already recorded.
{"columns": ["variant.spec", "quantitative.result"],
 "data": [
  ["I14F", 2.32],
  ["I14A", 3.44],
  ["P13G", 3.1],
  ["K3Y", 2.18],
  ["P10V", 3.02],
  ["P10L", 2.81],
  ["P13R", 2.57],
  ["E11W", 2.63]
]}

Prompt: Which value of protein stability index has been reported for V7H in the records?
Response: 3.27

Prompt: Which value of protein stability index has been reported for N1K in the records?
Response: 2.9

Prompt: Which value of protein stability index has been reported for E16V in the records?
Response: 3.14

Prompt: Which value of protein stability index has been reported for W2S in the records?
Response: 3.01
